- experimental target: human glucagon receptor (Homo sapiens, UniProt P47871)
- Construct: made in house; host or cells: FreeStyle CHO cells, transient transfection with pMSRαneo/hGCGR; membrane fraction (35,000 rpm pellet)
- Sequence (P47871 26-477): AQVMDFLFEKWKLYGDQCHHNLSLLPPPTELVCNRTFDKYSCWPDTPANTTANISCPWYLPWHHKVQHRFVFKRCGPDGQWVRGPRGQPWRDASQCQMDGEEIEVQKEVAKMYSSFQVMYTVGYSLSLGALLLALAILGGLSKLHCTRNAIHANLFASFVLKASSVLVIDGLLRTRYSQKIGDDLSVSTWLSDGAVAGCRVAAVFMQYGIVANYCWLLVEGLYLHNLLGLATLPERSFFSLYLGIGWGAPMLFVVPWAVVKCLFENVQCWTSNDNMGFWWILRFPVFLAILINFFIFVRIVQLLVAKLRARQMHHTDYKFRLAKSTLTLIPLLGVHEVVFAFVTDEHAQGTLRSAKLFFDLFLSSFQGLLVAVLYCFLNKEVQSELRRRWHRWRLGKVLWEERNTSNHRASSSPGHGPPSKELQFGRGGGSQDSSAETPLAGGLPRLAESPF
- experiment: Glucagon binding inhibitory activity ([125I]-glucagon binding to glucagon receptor membrane protein)
- test parameters: test compound 10 μM; 0.4% DMSO = 0%, non-labeled glucagon 1 μM = 100%; read-out: inhibitory rate (%) at 10 μM
Decision: inhibition at 10 µM compared against 70%; not below it gives T, below it gives F.

{"compound": "Cc1c(C(Nc2ccc(C(=O)N(C)CCC(=O)O)cc2)C2CCCC2)oc2c(F)cc(F)cc12 (stereo not drawn)", "experimental target": "human glucagon receptor (Homo sapiens, UniProt P47871)", "class name": "T"}
{"compound": "CCc1nn(-c2cc(F)cc(F)c2)cc1C(Nc1ccc(C(=O)N(C)CCC(=O)O)cc1)C1CCCCC1 (stereo not drawn)", "experimental target": "human glucagon receptor (Homo sapiens, UniProt P47871)", "class name": "F"}
{"compound": "CC(C)c1nn(-c2ccc(C(F)(F)F)cn2)cc1C(Nc1ccc(C(=O)N(C)CCC(=O)O)cc1)C1CCCCC1 (stereo not drawn)", "experimental target": "human glucagon receptor (Homo sapiens, UniProt P47871)", "class name": "T"}
{"compound": "CCC(C)(C)n1cc(C(Nc2ccc(C(=O)NCCC(=O)O)cc2)C2CCCCC2)c(C)n1 (stereo not drawn)", "experimental target": "human glucagon receptor (Homo sapiens, UniProt P47871)", "class name": "F"}
{"compound": "CCn1nc(-c2ccc(OC(F)(F)F)cc2)cc1C(CC(C)C)Nc1ccc(C(=O)N(C)CCC(=O)O)cc1 (stereo not drawn)", "experimental target": "human glucagon receptor (Homo sapiens, UniProt P47871)", "class name": "F"}
{"compound": "COCCCCC(Nc1ccc(C(=O)N(C)CCC(=O)O)cc1)c1oc2ccc(OC)cc2c1C (stereo not drawn)", "experimental target": "human glucagon receptor (Homo sapiens, UniProt P47871)", "class name": "F"}
{"compound": "Cc1c(C(Nc2ccc(C(=O)N(C)CCC(=O)O)cc2)C2CCCCC2)oc2ccc(Oc3ccc(C#N)cn3)cc12 (stereo not drawn)", "experimental target": "human glucagon receptor (Homo sapiens, UniProt P47871)", "class name": "T"}
{"compound": "CCCCCCC(Nc1ccc(C(=O)NCCC(=O)O)cc1)c1cc2cc(Cl)ccc2n1C (stereo not drawn)", "experimental target": "human glucagon receptor (Homo sapiens, UniProt P47871)", "class name": "T"}
{"compound": "Cc1c(C(Nc2ccc(C(=O)NCCC(=O)O)cc2)C2CCCCC2)sc2cccnc12 (stereo not drawn)", "experimental target": "human glucagon receptor (Homo sapiens, UniProt P47871)", "class name": "T"}
{"compound": "COc1ccc(-n2cc(C(CC(C)C)Nc3ccc(C(=O)N(C)CCC(=O)O)cc3)c(C3CC3)n2)cc1 (stereo not drawn)", "experimental target": "human glucagon receptor (Homo sapiens, UniProt P47871)", "class name": "F"}
{"compound": "COCc1nn(-c2ccc(OC(F)(F)F)cc2)cc1C(Nc1ccc(C(=O)N(C)CCC(=O)O)cc1)C1CCCCC1 (stereo not drawn)", "experimental target": "human glucagon receptor (Homo sapiens, UniProt P47871)", "class name": "T"}

Source listed as patent US8436043B2.
